Assay: Solubility of Compound A (Form B), shake flask method
Format: physicochemical
Conditions: thermodynamic from solid; crystalline Form B; water, final pH 8.7; room temperature 24 hours
Quantity measured: solubility at 24 h

Query CN(CCO)CC[C@H](CSc1ccccc1)Nc1ccc(S(=O)(=O)NC(=O)c2ccc(N3CCC([C@@H](O)c4ccccc4-c4ccc(Cl)cc4)CC3)cc2)cc1S(=O)(=O)C(F)(F)F [Compound A] yields solubility at 24 h of < 1 µg/mL

----------
Assay: Log D, octanol/water shake-flask
Format: physicochemical
Conditions: octanol / 10 mM sodium phosphate buffer pH 7.4
Quantity measured: logD

Record CN(CCO)CC[C@H](CSc1ccccc1)Nc1ccc(S(=O)(=O)NC(=O)c2ccc(N3CCC([C@@H](O)c4ccccc4-c4ccc(Cl)cc4)CC3)cc2)cc1S(=O)(=O)C(F)(F)F [Compound A] , field logD: > 3.5
